Where do these numbers come from? They come from paper PMC3509056.

target: hFFA2 (Homo sapiens, UniProt O15552, C141G); assay: beta-arrestin-2 BRET recruitment; assay type: cell-based
Sequence (O15552 whole entry C141G): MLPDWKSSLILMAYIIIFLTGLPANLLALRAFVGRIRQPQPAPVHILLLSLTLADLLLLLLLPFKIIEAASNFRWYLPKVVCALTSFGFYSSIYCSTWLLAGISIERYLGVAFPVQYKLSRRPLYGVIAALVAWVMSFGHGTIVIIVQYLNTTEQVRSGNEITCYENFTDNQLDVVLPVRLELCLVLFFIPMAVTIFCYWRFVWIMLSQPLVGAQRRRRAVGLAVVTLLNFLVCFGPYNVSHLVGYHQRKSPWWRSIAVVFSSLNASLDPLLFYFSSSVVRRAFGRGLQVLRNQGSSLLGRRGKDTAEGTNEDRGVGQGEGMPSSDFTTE
pEC50: −log10 of the molar value.
reported-endpoint: pEC50

Past entries and their recorded results:
> print(dat)
                                   compound  test.value
1                          C/C=C/C=C/C(=O)O        5.34
2  O=C(O)/C=C/c1ccccc1 [compound 28, trans-cinnamic acid]        3.41
3                            O=C(O)C1=CCCC1        4.08
4                           O=C(O)C1=CCCCC1        3.80
5                              C=CC=CC(=O)O        4.64
6                             CCCCCCCC(=O)O        2.97

[I] CC/C=C/C(=O)O [compound 22, trans-2-pentenoic acid]
[II] CCC/C=C/C(=O)O [compound 23, trans-2-hexenoic acid]
[III] CCCCCCC(=O)O
[IV] CC(=CC(=O)O)C(F)(F)F
Output the entries ranked by pEC50 from maximum down to minimum. Enter labels, ranked according to the request.
II, I, III, IV
